Each record here notes measured DC50.
Target: BRAF V600E (Homo sapiens, UniProt P15056, V600E)
Construct: expressed in transfected cells
Sequence (P15056 whole entry V600E): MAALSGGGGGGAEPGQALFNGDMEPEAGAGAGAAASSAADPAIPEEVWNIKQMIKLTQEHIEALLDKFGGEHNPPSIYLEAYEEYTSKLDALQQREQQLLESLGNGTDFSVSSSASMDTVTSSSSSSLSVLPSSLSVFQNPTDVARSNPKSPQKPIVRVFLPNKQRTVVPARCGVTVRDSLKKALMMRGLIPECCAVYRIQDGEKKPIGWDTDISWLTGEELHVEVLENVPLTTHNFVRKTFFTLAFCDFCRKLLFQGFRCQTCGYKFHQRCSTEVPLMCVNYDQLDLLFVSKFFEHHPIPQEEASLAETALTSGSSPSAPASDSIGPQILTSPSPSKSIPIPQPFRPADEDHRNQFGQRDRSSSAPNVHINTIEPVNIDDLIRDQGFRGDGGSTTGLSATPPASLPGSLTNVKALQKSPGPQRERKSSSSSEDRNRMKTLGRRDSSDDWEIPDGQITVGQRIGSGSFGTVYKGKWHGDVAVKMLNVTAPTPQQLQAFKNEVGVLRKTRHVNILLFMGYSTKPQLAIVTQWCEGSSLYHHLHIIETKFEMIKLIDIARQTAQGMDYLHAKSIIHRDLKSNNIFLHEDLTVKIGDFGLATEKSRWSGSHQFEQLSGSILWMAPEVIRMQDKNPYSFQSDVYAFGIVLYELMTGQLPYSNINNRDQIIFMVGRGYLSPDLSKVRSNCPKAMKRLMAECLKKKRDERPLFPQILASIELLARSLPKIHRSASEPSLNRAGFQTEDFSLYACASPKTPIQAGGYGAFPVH
Experiment: Cellular assay of target protein degradation, T-Rex 293 cells stably transfected with HA-BRAF_V600E (HA immunofluorescence, high content imaging)
Type: cell-based
Settings: half maximal degradation, T-Rex 293 HA-BRAF V600E; read-out: BRaf V600E DC50

The following compounds have reported results that may help.
{"COMPOUND": "COc1cc(OCCN2CCN(CCOc3ccc(-c4cnc5[nH]cc(C(=O)c6c(F)ccc(NS(=O)(=O)N7CC[C@@H](F)C7)c6F)c5c4)cc3)CC2)cc2c1C(=O)N([C@H]1CCC(=O)NC1=O)C2", "TEST_SYSTEM": "BRAF V600E (Homo sapiens, UniProt P15056, V600E)", "PROPERTY": "DC50", "READING": "5 to 50 nM"}
{"COMPOUND": "O=C1CCC(N2Cc3cc(C4CCN(CC5CCN(c6ccc(-c7cnc8[nH]cc(C(=O)c9c(F)ccc(NS(=O)(=O)N%10CC[C@@H](F)C%10)c9C(F)(F)F)c8c7)cc6)CC5)CC4)ccc3C2=O)C(=O)N1 (stereo partly shown)", "TEST_SYSTEM": "BRAF V600E (Homo sapiens, UniProt P15056, V600E)", "PROPERTY": "DC50", "READING": "> 500 nM"}
{"COMPOUND": "O=C1CC[C@@H](N2Cc3cc(OC[C@H](O)CN4CC5(C4)CN(c4ccc(-c6cnc7[nH]cc(C(=O)c8c(F)ccc(NS(=O)(=O)N9CC[C@@H](F)C9)c8F)c7c6)cc4)C5)ccc3C2=O)C(=O)N1", "TEST_SYSTEM": "BRAF V600E (Homo sapiens, UniProt P15056, V600E)", "PROPERTY": "DC50", "READING": "5 to 50 nM"}
{"COMPOUND": "O=C1CC[C@@H](N2Cc3cc(N4CCC(OC5CCN(c6ccc(-c7cnc8[nH]cc(C(=O)c9c(F)ccc(NS(=O)(=O)N%10CC[C@@H](F)C%10)c9F)c8c7)cc6)CC5)CC4)ccc3C2=O)C(=O)N1", "TEST_SYSTEM": "BRAF V600E (Homo sapiens, UniProt P15056, V600E)", "PROPERTY": "DC50", "READING": "5 to 50 nM"}
{"COMPOUND": "O=C1CCC(N2Cc3cc(OCCCCN4CCN(c5ccc(-c6cnc7[nH]cc(C(=O)c8c(F)ccc(NS(=O)(=O)N9CCC(F)(F)C9)c8F)c7c6)cc5)CC4)ccc3C2=O)C(=O)N1 (stereo not shown)", "TEST_SYSTEM": "BRAF V600E (Homo sapiens, UniProt P15056, V600E)", "PROPERTY": "DC50", "READING": "5 to 50 nM"}
{"COMPOUND": "C[C@@H]1CC[C@@H](C)N1S(=O)(=O)Nc1ccc(F)c(C(=O)c2c[nH]c3ncc(-c4ccc(N5CCC(CN6CCC(c7ccc8c(c7)CN([C@H]7CCC(=O)NC7=O)C8=O)CC6)CC5)cc4)cc23)c1F", "TEST_SYSTEM": "BRAF V600E (Homo sapiens, UniProt P15056, V600E)", "PROPERTY": "DC50", "READING": "5 to 50 nM"}
{"COMPOUND": "O=C1CCC(N2Cc3cc(CCOCCN4CCC(c5ccc(-c6cnc7[nH]cc(C(=O)c8c(F)ccc(NS(=O)(=O)N9CC[C@@H](F)C9)c8F)c7c6)cc5)CC4)ccc3C2=O)C(=O)N1 (stereo partly shown)", "TEST_SYSTEM": "BRAF V600E (Homo sapiens, UniProt P15056, V600E)", "PROPERTY": "DC50", "READING": "50 to 500 nM"}
{"COMPOUND": "C[C@@H]1CN(c2ccc(-c3cnc4[nH]cc(C(=O)c5c(F)ccc(NS(=O)(=O)N6CC[C@@H](F)C6)c5F)c4c3)cc2)C[C@H](C)N1CC1CN(c2ccc3c(c2)CN(C2CCC(=O)NC2=O)C3=O)C1 (stereo partly shown)", "TEST_SYSTEM": "BRAF V600E (Homo sapiens, UniProt P15056, V600E)", "PROPERTY": "DC50", "READING": "5 to 50 nM"}
{"COMPOUND": "O=C1CCC(N2Cc3cc(N4CCN(C[C@@H](O)Cc5ccc(-c6cnc7[nH]cc(C(=O)c8c(F)ccc(NS(=O)(=O)N9CC[C@@H](F)C9)c8F)c7c6)cc5)CC4)ccc3C2=O)C(=O)N1 (stereo partly shown)", "TEST_SYSTEM": "BRAF V600E (Homo sapiens, UniProt P15056, V600E)", "PROPERTY": "DC50", "READING": "5 to 50 nM"}
{"COMPOUND": "COc1cc(N2CC3(CN(CC4CCN(c5ccc(-c6cnc7[nH]cc(C(=O)c8c(F)ccc(NS(=O)(=O)N9CC[C@@H](F)C9)c8F)c7c6)cc5)CC4)C3)C2)ccc1C(=O)N[C@@H]1CCC(=O)NC1=O", "TEST_SYSTEM": "BRAF V600E (Homo sapiens, UniProt P15056, V600E)", "PROPERTY": "DC50", "READING": "50 to 500 nM"}

Kindly review the next compound as well.
Problem: Name the reported DC50 value associated with the compound O=C1CCC(N2Cc3cc(C4CCN(CC5CCN(c6ccc(-c7cnc8[nH]cc(C(=O)c9c(F)ccc(NS(=O)(=O)N%10CC[C@@H](F)C%10)c9F)c8c7)cc6)CC5)CC4)c(F)cc3C2=O)C(=O)N1 (stereo partly shown)
Solution: 5 to 50 nM

// provenance: patent US12180193B2
